Tested on: B16-F10
Experiment: Antiproliferative activity against mouse B16F10 cells after 48 hrs by MTT assay
Assay type: functional, cell-based
Conditions: B16-F10, 48 h
measured_quantity: IC50 (µM)

Past entries and their recorded results:
What IC50 value was documented for this molecule, CC(=O)N1N=C(c2ccc3ccccc3c2)OC1c1ccccc1Br (centres undefined) ?
6.98

What IC50 value was documented for this molecule, COc1ccc(C2OC(c3ccc4ccccc4c3)=NN2C(C)=O)cc1 (centres undefined) ?
6.86

What IC50 value was documented for this molecule, CC(=O)N1N=C(c2ccc3ccccc3c2)OC1c1ccc([N+](=O)[O-])cc1 (centres undefined) ?
9.32

I = CC(=O)N1N=C(c2ccc3ccccc3c2)OC1c1ccccc1F (centres undefined)
II = CC(=O)N1N=C(c2ccc3ccccc3c2)OC1c1ccc(C)cc1 (centres undefined)
III = CC(=O)N1N=C(c2ccc3ccccc3c2)OC1c1ccccc1[N+](=O)[O-] (centres undefined)
hey, can you rank those molecules up there by IC50? biggest number first please Response format: the labels, sorted as the prompt asks.
III, I, II
(III: 9.01 µM, I: 6.05 µM, II: 3.85 µM)

The measured values listed here are drawn from ChEMBL document CHEMBL1926500.
